Tested on: 377384-186-R-J1-PDC complex spheroid viability
Test: Anticancer human tumor 377384-186-R-J1-PDC patient-derived pancreatic carcinoma cell line growth inhibition [RAS]; active means viability on the fitted dose curve at most 10% of control; inactive means the rest
Settings: second compound 0.00949 µM; first compound 0.0316 µM
Tick one outcome: Y = active, N = inactive

Some solved cases for reference:
>>> category_label("CC(C)n1nc(-c2ccc3oc(N)nc3c2)c2c(N)ncnc21 + CCn1c(-c2cccnc2C(C)OC)c2c3cc(ccc31)N1CCOC(CC(NC(=O)C(C(C)C)N(C)C(=O)C3(F)CCN(C(=O)C#CC(C)(C)N(C)C)CC3)C(=O)N3CCCC(N3)C(=O)OCC(C)(C)C2)C1")
"N"
>>> category_label("O=C(c1ccc(F)c(F)c1Nc1ccc(I)cc1F)N1CC(O)([C@@H]2CCCCN2)C1 + CCn1c(-c2cccnc2C(C)OC)c2c3cc(ccc31)N1CCOC(CC(NC(=O)C(C(C)C)N(C)C(=O)C3(F)CCN(C(=O)C#CC(C)(C)N(C)C)CC3)C(=O)N3CCCC(N3)C(=O)OCC(C)(C)C2)C1")
"N"

Give the logged outcome of this assay for the following compound: CC(C)NCC(C(=O)N1CCN(c2ncnc3c2C(C)CC3O)CC1)c1ccc(Cl)cc1 (configuration not stated) + CCn1c(-c2cccnc2C(C)OC)c2c3cc(ccc31)N1CCOC(CC(NC(=O)C(C(C)C)N(C)C(=O)C3(F)CCN(C(=O)C#CC(C)(C)N(C)C)CC3)C(=O)N3CCCC(N3)C(=O)OCC(C)(C)C2)C1
N

Give the logged outcome of this assay for the following compound: CC(Nc1ccc2c(c1)OCCn1cc(N3C(=O)OCC3C(F)F)nc1-2)C(N)=O (configuration not stated) + CCn1c(-c2cccnc2C(C)OC)c2c3cc(ccc31)N1CCOC(CC(NC(=O)C(C(C)C)N(C)C(=O)C3(F)CCN(C(=O)C#CC(C)(C)N(C)C)CC3)C(=O)N3CCCC(N3)C(=O)OCC(C)(C)C2)C1
N

Give the logged outcome of this assay for the following compound: C[C@@H](NC(=O)c1ncnc(N)c1Cl)c1ncc(C(=O)Nc2cc(C(F)(F)F)c(Cl)cn2)s1 + CCn1c(-c2cccnc2C(C)OC)c2c3cc(ccc31)N1CCOC(CC(NC(=O)C(C(C)C)N(C)C(=O)C3(F)CCN(C(=O)C#CC(C)(C)N(C)C)CC3)C(=O)N3CCCC(N3)C(=O)OCC(C)(C)C2)C1
N

Give the logged outcome of this assay for the following compound: CC(=O)OC12COC1CC(O)C1(C)C(=O)C(O)C3=C(C)C(OC(=O)C(O)C(NC(=O)OC(C)(C)C)c4ccccc4)CC(O)(C(OC(=O)c4ccccc4)C21)C3(C)C (configuration not stated) + CCn1c(-c2cccnc2C(C)OC)c2c3cc(ccc31)N1CCOC(CC(NC(=O)C(C(C)C)N(C)C(=O)C3(F)CCN(C(=O)C#CC(C)(C)N(C)C)CC3)C(=O)N3CCCC(N3)C(=O)OCC(C)(C)C2)C1
N

Give the logged outcome of this assay for the following compound: CCC(CC)c1cc(NC2CCC(N)C2)n2nccc2n1 (configuration not stated) + CCn1c(-c2cc(N3CCN(C)CC3)cnc2C(C)OC)c2c3cc(ccc31)-c1csc(n1)CC(NC(=O)C1CC1C)C(=O)N1CCCC(N1)C(=O)OCC(C)(C)C2
Y

---

Test system: 377384-186-R-J1-PDC complex spheroid viability
Experiment: Anticancer human tumor 377384-186-R-J1-PDC cell line growth inhibition [RAS];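 further: spheroids exposed to compounds for seven days before readout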
Settings: second compound 0.000949 µM; first compound 0.000949 µM; hits give low values
Measured Parameter: viability, T/C (%)
Kindly provide the numeric value in % only, without the unit symbol.

Known results for compounds:
>>> numeric_result("CCc1c2c(nc3ccc(O)cc13)-c1cc3c(c(=O)n1C2)COC(=O)[C@]3(O)CC + CCn1c(-c2cc(N3CCN(C)CC3)cnc2C(C)OC)c2c3cc(ccc31)-c1csc(n1)CC(NC(=O)C1CC1C)C(=O)N1CCCC(N1)C(=O)OCC(C)(C)C2")
33.1
>>> numeric_result("CC1(C)CCC(Nc2ncc(C(F)(F)F)c(-c3c[nH]c4c(P(C)(C)=O)c(C#N)ccc34)n2)CN1 (centres undefined) + CCn1c(-c2cc(N3CCN(C)CC3)cnc2C(C)OC)c2c3cc(ccc31)-c1csc(n1)CC(NC(=O)C1CC1C)C(=O)N1CCCC(N1)C(=O)OCC(C)(C)C2")
42.6
>>> numeric_result("CCc1c2c(nc3ccc(O)cc13)-c1cc3c(c(=O)n1C2)COC(=O)[C@]3(O)CC + CCn1c(-c2cccnc2C(C)OC)c2c3cc(ccc31)N1CCOC(CC(NC(=O)C(C(C)C)N(C)C(=O)C3(F)CCN(C(=O)C#CC(C)(C)N(C)C)CC3)C(=O)N3CCCC(N3)C(=O)OCC(C)(C)C2)C1")
65.9

Turning to the following compound.
GET /values?readout=viability, T/C&system=377384-186-R-J1-PDC complex spheroid viability&item= CC1(C)CCC(Nc2ncc(C(F)(F)F)c(-c3c[nH]c4c(P(C)(C)=O)c(C#N)ccc34)n2)CN1 (centres undefined) + CCn1c(-c2cccnc2C(C)OC)c2c3cc(ccc31)N1CCOC(CC(NC(=O)C(C(C)C)N(C)C(=O)C3(F)CCN(C(=O)C#CC(C)(C)N(C)C)CC3)C(=O)N3CCCC(N3)C(=O)OCC(C)(C)C2)C1
96

---

Tested on: 377384-186-R-J1-PDC complex spheroid viability
Assay: Anticancer human tumor 377384-186-R-J1-PDC cell line growth inhibition [RAS]; active = viability on the fitted dose curve at most 10% of control; inactive = the rest;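 further: spheroids exposed to compounds for seven days before readout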
Conditions: second compound 0.1 µM; first compound 0.0316 µM
Text: RAS pathway inhibitors in Combinations in Complex Spheroids A high-throughput screen of multi-cell type tumor spheroids was designed to identify active combinations of RAS pathway inhibitors and targeted small molecules. Complex spheroids include a stromal component modeled by human endothelial cells (HUVEC) and fibroblasts modeled by human mesenchymal stem cells (MSCs). […] Compounds. […] If the clinical Cmax for an agent had not been determined, the highest concentration tested was 10 microM. […]
Tick one outcome: YES (active), NO (inactive)

Some solved cases for reference:
>>> category_label("CC(Nc1ccc2c(c1)OCCn1cc(N3C(=O)OCC3C(F)F)nc1-2)C(N)=O (configuration not stated) + C#Cc1c(F)ccc2cc(O)cc(-c3ncc4c(N5CC6CCC(C5)N6)nc(OCC56CCCN5CC(F)C6)nc4c3F)c12")
"YES"
>>> category_label("Nc1ccn(C2OC(CO)C(O)C2(F)F)c(=O)n1 (configuration not stated) + C#Cc1c(F)ccc2cc(O)cc(-c3ncc4c(N5CC6CCC(C5)N6)nc(OCC56CCCN5CC(F)C6)nc4c3F)c12")
"YES"
>>> category_label("NC1c2ccccc2OC12CCN(c1cnc3c(N4CCCc5ncccc54)n[nH]c3n1)CC2 (configuration not stated) + C=CC(=O)N1CCN(c2nc(OCC3CCCN3C)nc3c(F)c(-c4nc(N)cc(C)c4C(F)(F)F)c(Cl)cc23)C(C)C1")
"NO"

Give the logged outcome of this assay for the following compound: CCC(CC)c1cc(NC2CCC(N)C2)n2nccc2n1 (configuration not stated) + C#Cc1c(F)ccc2cc(O)cc(-c3ncc4c(N5CC6CCC(C5)N6)nc(OCC56CCCN5CC(F)C6)nc4c3F)c12
NO

Give the logged outcome of this assay for the following compound: CCC(CC)c1cc(NC2CCC(N)C2)n2nccc2n1 (configuration not stated) + C=CC(=O)N1CCN(c2nc(OCC3CCCN3C)nc3c(F)c(-c4nc(N)cc(C)c4C(F)(F)F)c(Cl)cc23)C(C)C1
NO

Give the logged outcome of this assay for the following compound: CC(=O)OC12COC1CC(O)C1(C)C(=O)C(O)C3=C(C)C(OC(=O)C(O)C(NC(=O)OC(C)(C)C)c4ccccc4)CC(O)(C(OC(=O)c4ccccc4)C21)C3(C)C (configuration not stated) + C=CC(=O)N1CCN(c2nc(OCC3CCCN3C)nc3c(F)c(-c4nc(N)cc(C)c4C(F)(F)F)c(Cl)cc23)C(C)C1
NO

Give the logged outcome of this assay for the following compound: CC1(O)CCCC1n1c(=O)c(C(F)F)cc2cnc(NC3CCN(S(C)(=O)=O)CC3)nc21 (configuration not stated) + C#Cc1c(F)ccc2cc(O)cc(-c3ncc4c(N5CC6CCC(C5)N6)nc(OCC56CCCN5CC(F)C6)nc4c3F)c12
YES

Give the logged outcome of this assay for the following compound: CCN1CCN(Cc2ccc(Nc3ncc(F)c(-c4cc(F)c5nc(C)n(C(C)C)c5c4)n3)nc2)CC1 + C#Cc1c(F)ccc2cc(O)cc(-c3ncc4c(N5CC6CCC(C5)N6)nc(OCC56CCCN5CC(F)C6)nc4c3F)c12
YES

Give the logged outcome of this assay for the following compound: CC(C)n1nc(-c2ccc3oc(N)nc3c2)c2c(N)ncnc21 + C=CC(=O)N1CCN(c2nc(OCC3CCCN3C)nc3c(F)c(-c4nc(N)cc(C)c4C(F)(F)F)c(Cl)cc23)C(C)C1
NO
